Test system: gastric mucosa
experimental.protocol: gastric tolerance (ulcerogenic activity)
applied.conditions: 200 mg/kg, orally, four consecutive days; severity scale 0-5
Catalogue of Mean number severity readings, one per entry.

compound	Mean number severity
Cc1ccc(C(=O)c2ccc(CC(=O)O)n2C)cc1 [Tolmetin Na.2H2 O, reference compound]	4
Cc1ccc(C(=O)c2ccc(CC(=O)NCC(=O)Nc3cccc(Cl)c3)n2C)cc1 [Compound 1b]	3
Cc1ccc(C(=O)c2ccc(CC(=O)NCC(=O)Nc3cccc(C)c3C)n2C)cc1 [Compound 1f]	3
